Origin of the recorded values: the supplement of paper PMC9112550

Test system: Escherichia coli TOP10
Assay: shrunken log2 fold change of peptide-encoding DNA abundance (4.5 h post-induction vs induction); higher = less antimicrobial activity (less host growth inhibition)
Settings: time post-induction: 4.5 h; library: site-saturation at positions 5, 18, 19, 20
Decide by shrunken log2 fold change: equal to or exceeding -0.007 means Satisfied, less means Not satisfied.

shrunken log2 fold change >= -0.007 for RRIRTRPPRLPRPRPRPNEPPRP ?
Not satisfied

shrunken log2 fold change >= -0.007 for RRIRPRPPRLPRPRPRPHHWPRP ?
Not satisfied

shrunken log2 fold change >= -0.007 for RRIRNRPPRLPRPRPRPDFGPRP ?
Not satisfied

shrunken log2 fold change >= -0.007 for RRIRGRPPRLPRPRPRPDMIPRP ?
Satisfied

shrunken log2 fold change >= -0.007 for RRIRPRPPRLPRPRPRPPCGPRP ?
Satisfied

shrunken log2 fold change >= -0.007 for RRIRQRPPRLPRPRPRPQKDPRP ?
Not satisfied

shrunken log2 fold change >= -0.007 for RRIRYRPPRLPRPRPRPNEVPRP ?
Satisfied

====

Tested on: Escherichia coli TOP10
Experiment: shrunken log2 fold change of peptide-encoding DNA abundance (4.5 h post-induction vs induction); higher = less antimicrobial activity (less host growth inhibition)
Settings: time post-induction: 4.5 h; library: site-saturation at positions 5, 18, 19, 20
Kindly state shrunken log2 fold change for each of the entries shown.
Give the figure only, with no unit attached.

Fill blank: measured shrunken log2 fold change of the sequence RRIRLRPPRLPRPRPRPTLAPRP is ____.
0.423

Fill blank: measured shrunken log2 fold change of the sequence RRIRGRPPRLPRPRPRPLDEPRP is ____.
1.24

Fill blank: measured shrunken log2 fold change of the sequence RRIRYRPPRLPRPRPRPYSYPRP is ____.
-0.395

Fill blank: measured shrunken log2 fold change of the sequence RRIRYRPPRLPRPRPRPKFQPRP is ____.
-0.0557

Fill blank: measured shrunken log2 fold change of the sequence RRIRPRPPRLPRPRPRPEQCPRP is ____.
-0.0149

Fill blank: measured shrunken log2 fold change of the sequence RRIRDRPPRLPRPRPRPHVPPRP is ____.
-0.076

Fill blank: measured shrunken log2 fold change of the sequence RRIRPRPPRLPRPRPRPLIKPRP is ____.
-0.268

Fill blank: measured shrunken log2 fold change of the sequence RRIRARPPRLPRPRPRPKYVPRP is ____.
-0.145

====

System: Escherichia coli TOP10
Assay: shrunken log2 fold change of peptide-encoding DNA abundance (4.5 h post-induction vs induction); higher = less antimicrobial activity (less host growth inhibition)
Settings: time post-induction: 4.5 h; library: site-saturation at positions 5, 18, 19, 20
Decide by shrunken log2 fold change: equal to or exceeding 0.02 means y, less means n.

shrunken log2 fold change >= 0.02 for RRIRQRPPRLPRPRPRPHYFPRP ?
n

shrunken log2 fold change >= 0.02 for RRIRHRPPRLPRPRPRPWVQPRP ?
n

shrunken log2 fold change >= 0.02 for RRIRSRPPRLPRPRPRPTAWPRP ?
y

shrunken log2 fold change >= 0.02 for RRIRSRPPRLPRPRPRPNGNPRP ?
n

shrunken log2 fold change >= 0.02 for RRIRLRPPRLPRPRPRPEAPPRP ?
y

====

Test system: Escherichia coli TOP10;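 note: peptides expressed intracellularly from a pBAD plasmid library in pooled LB shake-flask culture, induced with 0.3% L-arabinose, DNA abundance read by NGS, three biological replicates, DESeq2 with apeglm shrinkage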
Assay: shrunken log2 fold change of peptide-encoding DNA abundance (4.5 h post-induction vs induction); higher = less antimicrobial activity (less host growth inhibition)
Conditions: time post-induction: 4.5 h; library: site-saturation at positions 5, 18, 19, 20
Decide by shrunken log2 fold change: equal to or exceeding -0.1 means label 1, less means label 0.

shrunken log2 fold change >= -0.1 for RRIRKRPPRLPRPRPRPVLGPRP ?
label 1

shrunken log2 fold change >= -0.1 for RRIRGRPPRLPRPRPRPGYQPRP ?
label 1

shrunken log2 fold change >= -0.1 for RRIRHRPPRLPRPRPRPFQWPRP ?
label 0

shrunken log2 fold change >= -0.1 for RRIRQRPPRLPRPRPRPIWHPRP ?
label 0

shrunken log2 fold change >= -0.1 for RRIRKRPPRLPRPRPRPWRIPRP ?
label 1

shrunken log2 fold change >= -0.1 for RRIRMRPPRLPRPRPRPNCYPRP ?
label 0

shrunken log2 fold change >= -0.1 for RRIRLRPPRLPRPRPRPKYHPRP ?
label 0

shrunken log2 fold change >= -0.1 for RRIRERPPRLPRPRPRPRMLPRP ?
label 1

shrunken log2 fold change >= -0.1 for RRIRVRPPRLPRPRPRPNEVPRP ?
label 1

shrunken log2 fold change >= -0.1 for RRIRKRPPRLPRPRPRPPGLPRP ?
label 1

shrunken log2 fold change >= -0.1 for RRIRHRPPRLPRPRPRPTYAPRP ?
label 0

shrunken log2 fold change >= -0.1 for RRIRPRPPRLPRPRPRPTQFPRP ?
label 1

shrunken log2 fold change >= -0.1 for RRIRSRPPRLPRPRPRPIGYPRP ?
label 1

shrunken log2 fold change >= -0.1 for RRIRDRPPRLPRPRPRPVFNPRP ?
label 0

shrunken log2 fold change >= -0.1 for RRIRHRPPRLPRPRPRPWVSPRP ?
label 0

shrunken log2 fold change >= -0.1 for RRIRCRPPRLPRPRPRPKNHPRP ?
label 0

shrunken log2 fold change >= -0.1 for RRIRARPPRLPRPRPRPVDSPRP ?
label 1

shrunken log2 fold change >= -0.1 for RRIRRRPPRLPRPRPRPGLVPRP ?
label 1

shrunken log2 fold change >= -0.1 for RRIRLRPPRLPRPRPRPKSRPRP ?
label 0

shrunken log2 fold change >= -0.1 for RRIRIRPPRLPRPRPRPNMEPRP ?
label 0

shrunken log2 fold change >= -0.1 for RRIRNRPPRLPRPRPRPNEQPRP ?
label 1

shrunken log2 fold change >= -0.1 for RRIRSRPPRLPRPRPRPRRIPRP ?
label 1

shrunken log2 fold change >= -0.1 for RRIRKRPPRLPRPRPRPHNCPRP ?
label 1

shrunken log2 fold change >= -0.1 for RRIRWRPPRLPRPRPRPGRHPRP ?
label 1

shrunken log2 fold change >= -0.1 for RRIRRRPPRLPRPRPRPKCCPRP ?
label 1

shrunken log2 fold change >= -0.1 for RRIRQRPPRLPRPRPRPVPIPRP ?
label 1

shrunken log2 fold change >= -0.1 for RRIRMRPPRLPRPRPRPDRFPRP ?
label 1

shrunken log2 fold change >= -0.1 for RRIRWRPPRLPRPRPRPVAHPRP ?
label 1

shrunken log2 fold change >= -0.1 for RRIRTRPPRLPRPRPRPYMNPRP ?
label 0

shrunken log2 fold change >= -0.1 for RRIRCRPPRLPRPRPRPSASPRP ?
label 1

shrunken log2 fold change >= -0.1 for RRIRHRPPRLPRPRPRPNNFPRP ?
label 1

shrunken log2 fold change >= -0.1 for RRIRIRPPRLPRPRPRPAARPRP ?
label 1

shrunken log2 fold change >= -0.1 for RRIRGRPPRLPRPRPRPNRFPRP ?
label 1

shrunken log2 fold change >= -0.1 for RRIRERPPRLPRPRPRPYLMPRP ?
label 0

shrunken log2 fold change >= -0.1 for RRIRIRPPRLPRPRPRPMVYPRP ?
label 0

shrunken log2 fold change >= -0.1 for RRIRHRPPRLPRPRPRPSTAPRP ?
label 0

shrunken log2 fold change >= -0.1 for RRIRKRPPRLPRPRPRPPIFPRP ?
label 1

shrunken log2 fold change >= -0.1 for RRIRQRPPRLPRPRPRPAEHPRP ?
label 1

shrunken log2 fold change >= -0.1 for RRIRDRPPRLPRPRPRPNERPRP ?
label 1

shrunken log2 fold change >= -0.1 for RRIRKRPPRLPRPRPRPDMEPRP ?
label 1

shrunken log2 fold change >= -0.1 for RRIRQRPPRLPRPRPRPHNRPRP ?
label 0

shrunken log2 fold change >= -0.1 for RRIRSRPPRLPRPRPRPVWFPRP ?
label 0

shrunken log2 fold change >= -0.1 for RRIRARPPRLPRPRPRPYPLPRP ?
label 0

shrunken log2 fold change >= -0.1 for RRIRRRPPRLPRPRPRPVDTPRP ?
label 1

shrunken log2 fold change >= -0.1 for RRIRWRPPRLPRPRPRPHYWPRP ?
label 1

shrunken log2 fold change >= -0.1 for RRIRVRPPRLPRPRPRPQMMPRP ?
label 1

shrunken log2 fold change >= -0.1 for RRIRERPPRLPRPRPRPMEWPRP ?
label 1

shrunken log2 fold change >= -0.1 for RRIRRRPPRLPRPRPRPIIMPRP ?
label 0

shrunken log2 fold change >= -0.1 for RRIRARPPRLPRPRPRPNFNPRP ?
label 1

shrunken log2 fold change >= -0.1 for RRIRTRPPRLPRPRPRPAQVPRP ?
label 0

shrunken log2 fold change >= -0.1 for RRIRFRPPRLPRPRPRPGYGPRP ?
label 1

shrunken log2 fold change >= -0.1 for RRIRQRPPRLPRPRPRPDPKPRP ?
label 1

shrunken log2 fold change >= -0.1 for RRIRQRPPRLPRPRPRPDHNPRP ?
label 0

shrunken log2 fold change >= -0.1 for RRIRLRPPRLPRPRPRPDMLPRP ?
label 0

shrunken log2 fold change >= -0.1 for RRIRGRPPRLPRPRPRPDGVPRP ?
label 1

shrunken log2 fold change >= -0.1 for RRIRMRPPRLPRPRPRPQVCPRP ?
label 1

shrunken log2 fold change >= -0.1 for RRIRIRPPRLPRPRPRPDQHPRP ?
label 0

shrunken log2 fold change >= -0.1 for RRIRHRPPRLPRPRPRPHNNPRP ?
label 0
